Test system: HIV-1 resistant to Nevirapine (N119)
experiment_notes: microbe, parasite or virus in culture
Assay type: cell-based
test_conditions: Human immunodeficiency virus 1, CEM-SS
Experimental: The effects of the compounds were evaluated on the replication of HIV-1 (see Table 2) on CEM-SS cells (cell lines of the lymphocytic lineage) strongly infected with HIV-1 LAI as described by Moog et al. (Antiviral Research (1994), 24, 275-288). […] The virus production was measured by quantifying the activity of the inverse transcriptase associated with viral particles released into the culture supernatant. […]
measured_parameter: IC50 (nM)
# output: bare number, implied unit nM

[in] Item CCc1c(C)[nH]c(=O)c([N+](=O)[O-])c1Sc1cc(C)cc(C)c1 [Compound 7c] has what recorded IC50?
[out] 23

All figures here come from patent US6015820A.
